# Assay Protocol: chemical genetic growth profiling, strain panel (AID 1159580);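 further: tested at 20 µM; growth read once vehicle control cultures reached saturation at 30 °C; 1 = growth at the plate median or of vehicle wells; lower values mean less growth of the strain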
# Reported Conditions: S. cerevisiae deletion strains, growth OD, locus YOR184W, strain ser1, stronger effect = lower value
Out of some 5,500 compounds screened, about 2,000 (36%) were called active. Not shown: some 18% with an inconclusive outcome. This is one part of the list.
Listed molecules paired with reported normalized growth
Note: the reply should be a number with no unit written.

Here's what some known entries look like.
Would you mind telling me what normalized growth value was observed for `O=C(COc1ccc(Cl)cc1)N1CCN(Cc2ccc3c(c2)OCO3)CC1` ?
0.845

Would you mind telling me what normalized growth value was observed for CC(C)=CCCC1(C)C=Cc2c(O)c3c(c(CC=C(C)C)c2O1)OC12C(CC4CC1C(C)(C)OC2(C/C=C(/C)C(=O)O)C4O)C3=O (configuration not stated) ?
0.903

Would you mind telling me what normalized growth value was observed for C/C=C(/C)C(=O)O[C@@H]1[C@H](OC(C)=O)[C@@]2(CO)C(CC1(C)C)C1=CCC3[C@@]4(C)CC[C@H](O[C@@H]5O[C@H](C(=O)O)[C@@H](O[C@@H]6O[C@H](CO)[C@@H](O)[C@H](O)[C@H]6O)[C@H](O)[C@H]5O[C@@H]5O[C@H](CO)[C@@H](O)[C@H](O)[C@H]5O)[C@](C)(CO)C4CC[C@@]3(C)[C@]1(C)C[C@H]2O (some centres not stated) ?
1.02

Would you mind telling me what normalized growth value was observed for `CNCc1ccccc1` ?
1

Would you mind telling me what normalized growth value was observed for C[C@H]1[C@H](C)CC[C@]2(CO)CC[C@]3(C)C(=CCC4[C@@]5(C)CC[C@H](O)C(C)(C)C5CC[C@]43C)[C@H]12 (some centres not stated) ?
1.01

Continuing:
Would you mind telling me what normalized growth value was observed for `Nc1ccc(S(=O)(=O)Nc2ccnn2-c2ccccc2)cc1` ?
0.996

Would you mind telling me what normalized growth value was observed for CO[C@@]12[C@@H]3NC3CN1C1=C(C(=O)C(N)=C(C)C1=O)[C@@H]2COC(N)=O (some centres not stated) ?
0.948

* * *

# Assay Protocol: chemical genetic growth profiling, strain panel (AID 1159580);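 further: tested at 20 µM; growth read once vehicle control cultures reached saturation at 30 °C; 1 = growth at the plate median or of vehicle wells; lower values mean less growth of the strain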
# Reported Conditions: S. cerevisiae deletion strains, growth OD, locus YHR142W, strain chs7, stronger effect = lower value
In all, about 5,500 compounds went through this assay and about 2,000 (36%) were called active. About 18% were inconclusive and are not listed. Some of the results follow.
Listed molecules paired with reported normalized growth
Note: the reply should be a number with no unit written.

Here's what some known entries look like.
Would you mind telling me what normalized growth value was observed for CCN1C[C@]2(OC(=O)c3ccccc3NC(C)=O)CCC(OC)[C@]34C1[C@H](CC23)[C@@]1(O)CC(OC)[C@H]2CC4C1(O)[C@H]2OC (stereo partly drawn) ?
0.95

Would you mind telling me what normalized growth value was observed for `CCCOc1ccccc1-c1nc2n[nH]nc2c(=O)[nH]1` ?
0.953

Would you mind telling me what normalized growth value was observed for `Cc1cn([C@H]2C[C@H](N=[N+]=[N-])[C@@H](CO)O2)c(=O)[nH]c1=O` ?
0.972

Would you mind telling me what normalized growth value was observed for `Clc1ccccc1C(c1ccccc1)(c1ccccc1)n1ccnc1` ?
0.0738

Would you mind telling me what normalized growth value was observed for `Nc1c2c(nc3ccccc13)CCCC2` ?
1

Continuing:
Would you mind telling me what normalized growth value was observed for COc1cccc2c1C(=O)c1c(O)c3c(c(O)c1C2=O)C[C@@](O)(C(=O)CO)C[C@@H]3OC1C[C@H](N)[C@H](O)[C@H](C)O1 (stereo partly drawn) ?
0.538

Would you mind telling me what normalized growth value was observed for `Cc1cc(-n2c(=O)[nH]c(=O)n(C)c2=O)ccc1Oc1ccc(SC(F)(F)F)cc1` ?
0.318

Would you mind telling me what normalized growth value was observed for `COc1cccc2c1C(=O)c1c(O)c3c(c(O)c1C2=O)C[C@@](O)(C(C)=O)C[C@@H]3O[C@H]1C[C@H](N)[C@H](O)[C@H](C)O1` ?
0.956

Would you mind telling me what normalized growth value was observed for `COc1cccc2c1C(=O)c1c(O)c3c(c(O)c1C2=O)C[C@@](O)(C(=O)CO)C[C@@H]3O[C@H]1C[C@H](N)[C@@H](O)[C@H](C)O1` ?
0.84

Would you mind telling me what normalized growth value was observed for CC(C)=CCCC1(C)C=Cc2c(O)c3c(c(CC=C(C)C)c2O1)OC12C(=CC4CC1C(C)(C)OC2(C/C=C(/C)C(=O)O)C4=O)C3=O (stereo not drawn) ?
0.818

Would you mind telling me what normalized growth value was observed for CC(C)=CCCC1(C)C=Cc2c(O)c3c(c(CC=C(C)C)c2O1)OC12C(=CCCC1C(C)(C)O[C@@]2(C/C=C(\C)C(=O)O)C(=O)O)C3=O (stereo partly drawn) ?
0.702

Would you mind telling me what normalized growth value was observed for `COc1ccc2c3c([nH]c2c1)C(C)=NCC3` ?
1.01

Source: PubChem BioAssay AID1159580
